Assay: chemical genetic growth profiling, strain panel (AID 1159580);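 also: tested at 20 µM; growth read once vehicle control cultures reached saturation at 30 °C; 1 = growth at the plate median or of vehicle wells; lower values mean less growth of the strain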
Details: S. cerevisiae deletion strains, growth OD, locus YLR342W, strain FKS1
Among all 5,500 compounds or so, about 2,000 (36%) were called active. Another 18% or so got no clear call; they are omitted. Rule as the data show it: active = normalized growth mostly below about 0.91 (no sharp cut-off); inconclusive = no clear call, values can overlap the other calls; inactive = mostly above about 0.92. The list shows a part of the results.
// classify into True (active), False (inactive)

In: // param item: COc1cc(NS(=O)(=O)c2ccc(N)cc2)ncn1 ; yields the recorded call
Out: False

In: Fill in: this test's call for NC(=O)N1c2ccccc2C=Cc2ccccc21 is ___
Out: False

In: Give the logged outcome of this assay for the following compound: COc1ccc(C(=O)c2ccccc2)c(O)c1O
Out: False

In: Hi, sorry to bother you, what did the test record for CCOc1ccc(NC(C)=O)cc1 ?
Out: False

In: Recorded test call requested for CC1=NN(c2ccccc2)C(=O)C1
Out: False

In: Write down the call the test reported for this compound. Item: COc1ccc2c(=O)ccoc2c1
Out: False

---

Experiment: chemical genetic growth profiling, strain panel (AID 1159580)
Settings: S. cerevisiae deletion strains, growth OD, locus YNL128W, strain TEP1, active compounds read low
Screen size: about 5,500 compounds; about 2,000 (36%) were called active. Inconclusive results (about 18%) are left out. The list shows a part of the results. Where a SMILES comes first, the peptide text is derived from it. [ ]: non-standard residue; d: D form. Orn = NCCC[CH](N)C(=O)O
Param label: returns Met when normalized growth < 1, returns Not met otherwise, including exact equality.

// below: answered compounds
• COc1ccc2c(=O)ccoc2c1 = Not met
• CC(C)CC1NC(=O)C(CCCN)NC(=O)C(C(C)C)NC(=O)C2CCCN2C(=O)C(Cc2ccccc2)NC(=O)C(CC(C)C)NC(=O)C(CCCN)NC(=O)C(C(C)C)NC(=O)C2CCCN2C(=O)C(Cc2ccccc2)NC1=O (stereo unspecified) (cyclo(FPV[Orn]LFPV[Orn]L); configuration not given here) = Not met
• CC(=O)[O][Hg][c]1ccccc1 = Met
• COc1c2ccoc2cc2oc(C)cc(=O)c12 = Met
• CCCCCN(CCCCC)C(=O)C(CCC(=O)O)NC(=O)c1ccc(Cl)c(Cl)c1 (stereo unspecified) = Met
• COP(=O)(OC)OC(Br)C(Cl)(Cl)Br (stereo unspecified) = Met

In: is_below(normalized growth, 1) for COc1cccc(C(=O)N/N=C(/C)c2ccccc2O)c1 ?
Out: Met

In: Item COc1cc(/C=C/C=O)cc(OC)c1OC : normalized growth beneath 1, strictly?
Out: Not met

In: Quick check: does CC1=NN(c2ccccc2)C(=O)C1 have normalized growth under 1?
Out: Met

---

Experiment: chemical genetic growth profiling, strain panel (AID 1159580)
Settings: S. cerevisiae deletion strains, growth OD, locus YHR087W, strain rtc3, active compounds read low
Among all 5,500 compounds or so, about 2,000 (36%) were called active. Another 18% or so got no clear call; they are omitted. The list shows a part of the results.
PROPERTY_MEASURED: normalized growth
Returns: the value as a bare number; no unit string appended.

# example entries with known answers
* C1CCN(CCC2CCCCN2)CC1 (stereo not drawn) | 1
* Cc1[nH]n(C)c(=O)c1N=Nc1ccc(Cl)cc1 | 0.926
* N#C/C(=C\N(CCS(=O)(=O)c1ccc(Cl)cc1)Cc1cccs1)S(=O)(=O)c1ccc(Cl)cc1 | 1.01

Value of measured normalized growth for the entry Cc1ccc(N=Cc2cccs2)cc1Cl : 0.999

Briefly, normalized growth measured for Cc1ccc(N=Nc2c(C)[nH]n(C)c2=O)cc1 : 0.974

Per the record, Cc1ccc(-c2nn(-c3ccccc3)c(=O)c3ccccc23)cc1C has normalized growth of 0.922

// sample CC(C)(C)C1=NN(c2ccccc2)C(=O)C1 , its normalized growth was 1

Lookup result for CC(=O)c1cc2ccccc2oc1=O ; measured normalized growth: 1.03

---

Experiment: chemical genetic growth profiling, strain panel (AID 1159580);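 also: tested at 20 µM; growth read once vehicle control cultures reached saturation at 30 °C; 1 = growth at the plate median or of vehicle wells; lower values mean less growth of the strain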
Details: S. cerevisiae deletion strains, growth OD, locus YOR144C, strain elg1, active compounds read low
About 2,000 (36%) of roughly 5,500 compounds were called active. Not shown: some 18% with an inconclusive outcome. This is one part of the list.
Listed here are compounds together with their documented normalized growth.
Lab note: jot the number down without any unit.

- CCOc1ccc(NC(C)=O)cc1: 0.997
- O=C(OC[C@H]1O[C@H](OC(=O)c2cc(O)c(O)c(OC(=O)c3cc(O)c(O)c(O)c3)c2)[C@H](OC(=O)c2cc(O)c(O)c(OC(=O)c3cc(O)c(O)c(O)c3)c2)[C@@H](OC(=O)c2cc(O)c(O)c(OC(=O)c3cc(O)c(O)c(O)c3)c2)[C@@H]1OC(=O)c1cc(O)c(O)c(OC(=O)c2cc(O)c(O)c(O)c2)c1)c1cc(O)c(O)c(OC(=O)c2cc(O)c(O)c(O)c2)c1: 0.0856
- NC(N)=NC(N)=Nc1ccccc1: 0.994

Briefly, normalized growth measured for COc1ccc2c(c1OC)OC[C@@H](c1ccc(OC)c(OC)c1OC)C2 : 1

So for CC(=O)c1cc2c(cc1O)OC(C)(C)C=C2 , the logged normalized growth turned out to be 0.984

Given item CN1CCN(CCC=C2c3ccccc3Sc3ccc(S(=O)(=O)N(C)C)cc32)CC1 , the value recorded as its normalized growth is 0.988

Measured normalized growth, NC1C[C@H]1c1ccccc1 (stereo partly specified) : 0.988

Record summary for COc1cc(NS(=O)(=O)c2ccc(N)cc2)ncn1 : reported normalized growth = 0.982

response.value for CC(N)C(O)c1ccc(O)c(O)c1 (stereo unspecified) (field: normalized growth) = 0.977

---

Assay: chemical genetic growth profiling, strain panel (AID 1159580);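 also: tested at 20 µM; growth read once vehicle control cultures reached saturation at 30 °C; 1 = growth at the plate median or of vehicle wells; lower values mean less growth of the strain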
Conditions: S. cerevisiae deletion strains, growth OD, locus YJL187C, strain SWE1
In all, about 5,500 compounds went through this assay and about 2,000 (36%) were called active. Another 18% or so got no clear call; they are omitted. No stated cut-off is given here; in the data, active means normalized growth mostly below about 0.91 (no sharp cut-off); inconclusive means no clear call, values can overlap the other calls; inactive means mostly above about 0.92. Some of the results follow.
Outcome field: choose from active, inactive

* CC[C@H]1OC(=O)[C@H](C)[C@@H](O[C@H]2C[C@@](C)(OC)[C@@H](O)[C@H](C)O2)[C@H](C)[C@@H](O[C@@H]2O[C@H](C)C[C@H](N(C)C)[C@H]2O)[C@](C)(O)C[C@@H](C)[C@@H]2N[C@@H](COCCOC)O[C@H]([C@H]2C)[C@]1(C)O | inactive
* CC(=O)NO | inactive
* NC(=S)c1ccc(Oc2ccc(Cl)cc2)nc1 | active
* CNCC[C@@H](Oc1ccccc1)c1ccccc1 | inactive
* CC(=O)OC[C@H]1O[C@@H](Oc2cc(OC(C)=O)c3c(=O)cc(-c4ccc(OC(C)=O)cc4)oc3c2)[C@H](OC(C)=O)[C@@H](OC(C)=O)[C@@H]1OC(C)=O | inactive
* CO[C@H]1C[C@H](O[C@H]2[C@H](C)[C@@H](OC3O[C@H](C)C[C@H](N(C)C)[C@H]3OC(C)=O)[C@@H](C)C[C@]3(CO3)C(=O)[C@H](C)[C@@H](OC(C)=O)[C@@H](C)[C@@H](C)OC(=O)[C@@H]2C)O[C@@H](C)[C@@H]1OC(C)=O (some centres not stated) | inactive

Now let's try a different one.
In: Tell me the recorded outcome of this test for CC(NCCC(c1ccccc1)c1ccccc1)c1ccccc1 (configuration not stated) .
Out: inactive

---

Experiment: chemical genetic growth profiling, strain panel (AID 1159580);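 also: tested at 20 µM; growth read once vehicle control cultures reached saturation at 30 °C; 1 = growth at the plate median or of vehicle wells; lower values mean less growth of the strain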
Conditions: S. cerevisiae deletion strains, growth OD, locus YIL125W, strain kgd1, active compounds read low
About 2,000 (36%) of roughly 5,500 compounds were called active. About 18% were inconclusive and are not listed. The list shows a part of the results. *1 amine or outer side, *2 acyl side, *3 side chain or, on linkers, in order; H or OH if unused. Where a SMILES comes first, the peptide text is derived from it. Bridges are numbered along the chain shown (N, C = ends). [ ]: non-standard residue; d: D form. The star is where a group is joined. ξ: configuration not given here. ΔAla(E,3-NHCONH2) = NC(=O)N/C=C(/N)C(=O)O; X2 = NC1=NCCC(C(N[*:1])C(=O)[*:2])N1; ξβ3hOrn = NCCCC(N)CC(=O)*; Dap = NC[CH](N)C(=O)O
# normalized growth per record follows
Output spec: single numeric token, no unit.

* CC(=O)Oc1cccc2c1C(=O)c1c(OC(C)=O)cc(C(=O)O)cc1C2=O | 1
* CC(=O)O[C@H]1CC[C@]2(C)C3CC(=O)[C@]4(C)C(C(C)=O)=CCC4C3CC[C@H]2C1 (stereo not given in full) | 0.989
* C=C(C)[C@H]1Cc2c(ccc3c2O[C@@H]2COc4cc(OC)c(OC)cc4[C@@H]2C3=O)O1 | 1.01
* CC(=O)O[C@H]1CC[C@]2(C)C3CC[C@@]4(C)C(CC5O[C@@]6(CCC(C)CO6)[C@@H](C)C54)C3CC[C@@H]2C1 (stereo not given in full) | 1
* CCNc1nc(Cl)nc(NCC)n1 | 1
* OCCN1CCN(CCCN2c3ccccc3Sc3ccc(C(F)(F)F)cc32)CC1 | 0.995
* Cc1c(NC(=O)c2cccnc2)c(=O)n(-c2ccccc2)n1C | 0.987
* CC1(C)C(=O)[C@@H]2C[C@@]3(O)C4=CC(=O)O[C@@H](c5ccoc5)[C@]4(C)CCC3[C@@](C)(C2=O)[C@H]1CC(=O)O (stereo not given in full) | 0.994
* COc1cc2c(cc1OC)[C@@H]1C(=O)c3ccc4c(c3O[C@@H]1CO2)CC(C(C)C)O4 (stereo not given in full) | 0.989
* CC(=O)[O][Hg][c]1ccccc1 | 0.0567

Lab note: measured normalized growth of CC(=O)O[C@@H]1CC[C@]2(C)C3CC[C@]4(C)C(=O)CCC4C3CC[C@H]2C1 (stereo not given in full) was 0.981

Consider COc1cc(NS(=O)(=O)c2ccc(N)cc2)ncn1 . Its measured normalized growth is 0.982

normalized growth in this record for CN(C)CCc1c[nH]c2ccc(CS(=O)(=O)N3CCCC3)cc12 : 0.994

Quick note, normalized growth for NCCCC(N)CC(=O)NCC1NC(=O)C(CO)NC(=O)C(N)CNC(=O)C(C2CCN=C(N)N2)NC(=O)/C(=C\NC(N)=O)NC1=O (stereo not drawn) (H-[Dap]S[Dap](ξβ3hOrn)[ΔAla(E,3-NHCONH2)][X2]; lactam 1-C; configuration not given here) landed at 1.01

// CC1(C)C=Cc2cc3ccc(=O)oc3cc2O1 : normalized growth value = 0.935

The reported normalized growth of the compound CCc1cccc2c3c([nH]c12)C(CC)(CC(=O)O)OCC3 (stereo not given) was 0.992

Record CC(=O)[C@@]1(O)CCC2C3CCC4=CC(=O)CC[C@]4(C)C3CC[C@@]21C (stereo not given in full) . Reported normalized growth: 1.03

# normalized growth (compound: CCCCCCCCCCCCCCCCCCOCC(O)CO (stereo not given) ) is 1.01

normalized growth reported for this compound CC1=NN(c2ccccc2)C(=O)C1 : 0.93

So, CN1CCN(CCC=C2c3ccccc3Sc3ccc(S(=O)(=O)N(C)C)cc32)CC1 ? Its normalized growth was 0.997

Lab note: measured normalized growth of CC(N)C(O)c1ccc(O)c(O)c1 (stereo not given) was 0.988

Entry NC(N)=NC(N)=Nc1ccccc1 — recorded normalized growth = 0.988

For this compound ( COC1(C)CCC2OC2(C)CCC2C1CC2(C)C (stereo not given) ), measured normalized growth is 0.981

Reported normalized growth for OC(c1cc(C(F)(F)F)nc2c(C(F)(F)F)cccc12)C1CCCCN1 (stereo not given) was 0.995

What the record says about NC[C@H]1O[C@H](O[C@H]2C(O[C@@H]3O[C@H](CO)[C@@H](O)[C@H]3O)[C@@H](O)[C@H](N)C[C@@H]2N)[C@H](N)[C@@H](O)[C@@H]1O (stereo not given in full) : normalized growth is 1

Measured normalized growth, COc1ccc(C2C(=O)c3ccccc3C2=O)cc1 : 0.997
